Data origin: BigSolDB 2.1

Conditions: in o-xylene, 333.15 K
readout: solubility (mole fraction)
In your answer, state the number alone without any accompanying words.

Looking up CCCCCC[n+]1ccn(C)c1.O=[N+]([O-])[O-] , I see its solubility (mole fraction) listed as 0.00227

Looking up CCCCCCCC[n+]1ccn(C)c1.O=[N+]([O-])[O-] , I see its solubility (mole fraction) listed as 0.00704

----------
Details: in n-hexane, 313.15 K
readout: solubility (mole fraction)
In your answer, state the number alone without any accompanying words.

Looking up CCCCCC[n+]1ccn(C)c1.O=[N+]([O-])[O-] , I see its solubility (mole fraction) listed as 0.000693

Looking up CCCCCCCC[n+]1ccn(C)c1.O=[N+]([O-])[O-] , I see its solubility (mole fraction) listed as 0.00162

----------
Conditions: in toluene, 333.15 K
Can you tell me solubility (mole fraction) for the items I'm about to list?
In your answer, state the number alone without any accompanying words.

Looking up CCCCCCCC[n+]1ccn(C)c1.O=[N+]([O-])[O-] , I see its solubility (mole fraction) listed as 0.00103

Looking up CCCCCC[n+]1ccn(C)c1.O=[N+]([O-])[O-] , I see its solubility (mole fraction) listed as 0.000904

----------
Details: in n-octane, 338.15 K
Can you tell me solubility (mole fraction) for the items I'm about to list?
In your answer, state the number alone without any accompanying words.

Looking up CCCCCCCC[n+]1ccn(C)c1.O=[N+]([O-])[O-] , I see its solubility (mole fraction) listed as 0.00168

Looking up CCCCCC[n+]1ccn(C)c1.O=[N+]([O-])[O-] , I see its solubility (mole fraction) listed as 0.000568

----------
Conditions: in n-octane, 343.15 K
readout: solubility (mole fraction)
In your answer, state the number alone without any accompanying words.

Looking up CCCCCC[n+]1ccn(C)c1.O=[N+]([O-])[O-] , I see its solubility (mole fraction) listed as 0.000631

Looking up CCCCCCCC[n+]1ccn(C)c1.O=[N+]([O-])[O-] , I see its solubility (mole fraction) listed as 0.00198

----------
Conditions: in n-hexane, 328.15 K
Can you tell me solubility (mole fraction) for the items I'm about to list?
In your answer, state the number alone without any accompanying words.

Looking up CCCCCCCC[n+]1ccn(C)c1.O=[N+]([O-])[O-] , I see its solubility (mole fraction) listed as 0.00232

Looking up CCCCCC[n+]1ccn(C)c1.O=[N+]([O-])[O-] , I see its solubility (mole fraction) listed as 0.000995

----------
Can you tell me solubility (mole fraction) for the items I'm about to list?
Settings: in benzene, 338.15 K

Looking up CCCCCCCC[n+]1ccn(C)c1.O=[N+]([O-])[O-] , I see its solubility (mole fraction) listed as 0.000981

Looking up CCCCCC[n+]1ccn(C)c1.O=[N+]([O-])[O-] , I see its solubility (mole fraction) listed as 0.000832

----------
Settings: in n-hexane, 303.15 K
Can you tell me solubility (mole fraction) for the items I'm about to list?
In your answer, state the number alone without any accompanying words.

Looking up CCCCCCCC[n+]1ccn(C)c1.O=[N+]([O-])[O-] , I see its solubility (mole fraction) listed as 0.00113

Looking up CCCCCC[n+]1ccn(C)c1.O=[N+]([O-])[O-] , I see its solubility (mole fraction) listed as 0.000492

----------
Conditions: in n-hexane, 298.15 K
readout: solubility (mole fraction)
In your answer, state the number alone without any accompanying words.

Looking up CCCCCCCC[n+]1ccn(C)c1.O=[N+]([O-])[O-] , I see its solubility (mole fraction) listed as 0.000919

Looking up CCCCCC[n+]1ccn(C)c1.O=[N+]([O-])[O-] , I see its solubility (mole fraction) listed as 0.00042

----------
Conditions: in n-octane, 313.15 K
Can you tell me solubility (mole fraction) for the items I'm about to list?
In your answer, state the number alone without any accompanying words.

Looking up CCCCCC[n+]1ccn(C)c1.O=[N+]([O-])[O-] , I see its solubility (mole fraction) listed as 0.000344

Looking up CCCCCCCC[n+]1ccn(C)c1.O=[N+]([O-])[O-] , I see its solubility (mole fraction) listed as 0.000733

----------
Settings: in n-octane, 308.15 K
readout: solubility (mole fraction)
In your answer, state the number alone without any accompanying words.

Looking up CCCCCCCC[n+]1ccn(C)c1.O=[N+]([O-])[O-] , I see its solubility (mole fraction) listed as 0.000605

Looking up CCCCCC[n+]1ccn(C)c1.O=[N+]([O-])[O-] , I see its solubility (mole fraction) listed as 0.000299

----------
Conditions: in m-xylene, 298.15 K
readout: solubility (mole fraction)
In your answer, state the number alone without any accompanying words.

Looking up CCCCCC[n+]1ccn(C)c1.O=[N+]([O-])[O-] , I see its solubility (mole fraction) listed as 0.00239

Looking up CCCCCCCC[n+]1ccn(C)c1.O=[N+]([O-])[O-] , I see its solubility (mole fraction) listed as 0.00526

----------
Can you tell me solubility (mole fraction) for the items I'm about to list?
Conditions: in m-xylene, 338.15 K
In your answer, state the number alone without any accompanying words.

Looking up CCCCCC[n+]1ccn(C)c1.O=[N+]([O-])[O-] , I see its solubility (mole fraction) listed as 0.00553

Looking up CCCCCCCC[n+]1ccn(C)c1.O=[N+]([O-])[O-] , I see its solubility (mole fraction) listed as 0.00845

----------
Details: in m-xylene, 313.15 K
readout: solubility (mole fraction)
In your answer, state the number alone without any accompanying words.

Looking up CCCCCCCC[n+]1ccn(C)c1.O=[N+]([O-])[O-] , I see its solubility (mole fraction) listed as 0.00645

Looking up CCCCCC[n+]1ccn(C)c1.O=[N+]([O-])[O-] , I see its solubility (mole fraction) listed as 0.00337

----------
Settings: in n-heptane, 338.15 K
readout: solubility (mole fraction)
In your answer, state the number alone without any accompanying words.

Looking up CCCCCC[n+]1ccn(C)c1.O=[N+]([O-])[O-] , I see its solubility (mole fraction) listed as 0.00109

Looking up CCCCCCCC[n+]1ccn(C)c1.O=[N+]([O-])[O-] , I see its solubility (mole fraction) listed as 0.00166

----------
Details: in n-heptane, 293.15 K
readout: solubility (mole fraction)
In your answer, state the number alone without any accompanying words.

Looking up CCCCCCCC[n+]1ccn(C)c1.O=[N+]([O-])[O-] , I see its solubility (mole fraction) listed as 0.000342

----------
Can you tell me solubility (mole fraction) for the items I'm about to list?
Conditions: in n-heptane, 323.15 K
In your answer, state the number alone without any accompanying words.

Looking up CCCCCC[n+]1ccn(C)c1.O=[N+]([O-])[O-] , I see its solubility (mole fraction) listed as 0.00049

Looking up CCCCCCCC[n+]1ccn(C)c1.O=[N+]([O-])[O-] , I see its solubility (mole fraction) listed as 0.00101

----------
Conditions: in benzene, 333.15 K
readout: solubility (mole fraction)
In your answer, state the number alone without any accompanying words.

Looking up CCCCCCCC[n+]1ccn(C)c1.O=[N+]([O-])[O-] , I see its solubility (mole fraction) listed as 0.00086

Looking up CCCCCC[n+]1ccn(C)c1.O=[N+]([O-])[O-] , I see its solubility (mole fraction) listed as 0.000714

----------
Settings: in n-octane, 293.15 K
readout: solubility (mole fraction)
In your answer, state the number alone without any accompanying words.

Looking up CCCCCC[n+]1ccn(C)c1.O=[N+]([O-])[O-] , I see its solubility (mole fraction) listed as 0.000203

Looking up CCCCCCCC[n+]1ccn(C)c1.O=[N+]([O-])[O-] , I see its solubility (mole fraction) listed as 0.000355

----------
Conditions: in p-xylene, 308.15 K
readout: solubility (mole fraction)

Looking up CCCCCC[n+]1ccn(C)c1.O=[N+]([O-])[O-] , I see its solubility (mole fraction) listed as 0.00102

Looking up CCCCCCCC[n+]1ccn(C)c1.O=[N+]([O-])[O-] , I see its solubility (mole fraction) listed as 0.00358

----------
Details: in n-hexane, 318.15 K
readout: solubility (mole fraction)

Looking up CCCCCC[n+]1ccn(C)c1.O=[N+]([O-])[O-] , I see its solubility (mole fraction) listed as 0.000794

Looking up CCCCCCCC[n+]1ccn(C)c1.O=[N+]([O-])[O-] , I see its solubility (mole fraction) listed as 0.00184

----------
Conditions: in benzene, 328.15 K
Can you tell me solubility (mole fraction) for the items I'm about to list?
In your answer, state the number alone without any accompanying words.

Looking up CCCCCC[n+]1ccn(C)c1.O=[N+]([O-])[O-] , I see its solubility (mole fraction) listed as 0.00061

Looking up CCCCCCCC[n+]1ccn(C)c1.O=[N+]([O-])[O-] , I see its solubility (mole fraction) listed as 0.000751
